# target_of_assay: T1, HLA-DQ2.5/omega 2 gliadin peptide complex on Ba/F3 cells (human; wheat)
# T1 construct: also called Ba/F3-HLA-DQ2.5/omega 2 gliadin peptide
# procedure_details: FACS
value_kind: FIG. 30 FACS value (IC17=0, DQN0139bb=100)

binder	reading
DQN0334bb (antibody, human IgG1, kappa, V domains shown, also called DQN0334Hb; DQN0334Lb) VH: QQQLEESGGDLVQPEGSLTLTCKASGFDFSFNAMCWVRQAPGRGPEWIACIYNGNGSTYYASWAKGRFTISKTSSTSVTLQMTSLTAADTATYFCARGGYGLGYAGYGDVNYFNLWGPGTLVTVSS VL: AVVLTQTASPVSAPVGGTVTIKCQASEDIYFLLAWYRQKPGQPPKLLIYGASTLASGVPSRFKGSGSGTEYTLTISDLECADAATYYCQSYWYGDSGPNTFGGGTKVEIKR	36.6
DQN0271hh (antibody, human IgG1, kappa, V domains shown, also called DQN0271Lh) VH: QSLEESGGGLVKPGASLTLTCKASGFSFSSGYYMCWVRQAPGKGLEWIACIYAGSPDLTYYATWAKGRLTISTTSSTTVTLQLTSLTAADTATYFCARDPGNWGGYDDVRLWGPGTLVTVSS VL: AQVLTQTPSPVSAAVGGTVTISCQSSQSIYSNYLSWFQQKTGQPPKLLIYRASTLASGVPSRFKGSGSGTEFTLTISGVECDDAATYYCQGYYSGAIWTFGGGTKVEIKR	68.9
DQN0344xx (antibody, human IgG1, kappa, V domains shown, also called DQN0344Hx; DQN0344Lx) VH: QSLEESGGGLVKPGGTLTLTCTASGFSFSSSYWMCWVRQAPGKGLEWVACVYGGSDTTYYASWTKGRFTISKGSSTTVALQVTSLTAADTATYFCARDPLNYYYYGELNLWGPGTLVTVSS VL: AVVLTQTASPVSAAVGGTVTIRCQATENIYSGLAWYQQKPGQPPKVLIYYVSTLASGVPSRFKGSGSGTEYTLTISGVQCDDAATYYCQTYHDISNVTFGGGTKVEIKR	3.7
